SYSTEM_UNDER_TEST: KRAS (G12D) (Homo sapiens, UniProt P01116, G12D)
Construct: in-cell western with KRAS G12D antibody after 24 h
Sequence (P01116 1-188 isoform P01116-2 G12D): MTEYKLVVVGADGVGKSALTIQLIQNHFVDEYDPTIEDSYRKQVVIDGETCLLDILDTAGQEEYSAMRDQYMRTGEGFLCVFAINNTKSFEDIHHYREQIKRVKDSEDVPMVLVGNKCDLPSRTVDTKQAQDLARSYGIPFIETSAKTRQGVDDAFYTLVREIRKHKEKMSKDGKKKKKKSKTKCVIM
ASSAY_TEXT: KRAS (G12D) cellular degradation assay in AsPC-1 cells
Format: cell-based
EXPERIMENTAL_CONDITIONS: 24 hours, antibody fluorescence (Odyssey CLX), DC50 half-maximal degradation concentration
Some compounds, each annotated with its measured DC50.

Here are 5 compounds together with their reported answers.
COMPOUND	DC50
Cc1ncsc1-c1ccc([C@H](CO)NC(=O)[C@@H]2C[C@@H](O)CN2C(=O)[C@H](C(C)C)n2cc(-c3ccc(COc4c(-c5c(C)c(F)cc6[nH]ncc56)c(C5CC5)cc5c(N6C[C@H]7C[C@@H]6CN7)nc(OC6CCOCC6)nc45)cc3)nn2)cc1 (single isomer, unassigned) [Example 5A]	< 10 nM
CCn1nccc1-c1ccc([C@H](CO)NC(=O)[C@@H]2C[C@@H](O)CN2C(=O)[C@H](C(C)C)n2cc(-c3ccc(COc4c(-c5c(C)c(F)cc6[nH]ncc56)c(C5CC5)cc5c(N6C[C@@H]7C[C@H]6CN7)nc(OCC6(CC(F)F)CC6)nc45)cc3)nn2)cc1	< 10 nM
CO[C@@H](C)COc1nc(N(C)[C@H]2CCNC2)c2cc(C3CC3)c(-c3c(C)c(F)cc4[nH]ncc34)c(OCc3ccc(-c4cn([C@H](C(=O)N5C[C@H](O)C[C@H]5C(=O)N[C@H](c5ccc(-c6scnc6C)cc5)[C@H](C)O)C(C)C)nn4)cc3)c2n1 [Example 167]	< 10 nM
CCn1nccc1-c1ccc([C@H](CO)NC(=O)[C@@H]2C[C@@H](O)CN2C(=O)[C@H](C(C)C)n2cc(-c3ccc(COc4c(-c5c(C)c(F)cc6[nH]ncc56)c(C5CC5)cc5c(N6CC7CCC(C6)N7)nc(OC6CCOCC6)nc45)cc3)nn2)cc1	10 to 100 nM
CCn1nccc1-c1ccc([C@@H](NC(=O)[C@@H]2C[C@@H](O)CN2C(=O)[C@H](C(C)C)n2cc(-c3ccc(COc4c(-c5c(C)c(F)cc6[nH]ncc56)c(C5CC5)cc5c(N(C)[C@H]6CCNC6)nc(O[C@H]6C[C@H](OC)C6)nc45)cc3)nn2)[C@H](C)O)cc1	< 10 nM

Any idea what DC50 came out for CCn1nccc1-c1ccc([C@H](CO)NC(=O)[C@@H]2C[C@@H](O)CN2C(=O)[C@H](C(C)C)n2cc(-c3ccc(COc4c(-c5c(C)c(F)cc6[nH]ncc56)c(C5CC5)cc5c(N6CCOCC(C)(O)C6)nc(OC[C@H](C)OC)nc45)cc3)nn2)cc1 (stereo partly shown) on KRAS (G12D) (Homo sapiens, UniProt P01116, G12D)?
10 to 100 nM

Any idea what DC50 came out for `CCn1nccc1-c1ccc([C@H](CO)NC(=O)[C@@H]2C[C@@H](O)CN2C(=O)[C@H](C(C)C)n2cc(-c3ccc(COc4c(-c5c(C)c(F)cc6[nH]ncc56)c(C5CC5)cc5c(N6CCC(C#N)CC6)nc(OC[C@H](C)OC)nc45)cc3)nn2)cc1` on KRAS (G12D) (Homo sapiens, UniProt P01116, G12D)?
10 to 100 nM

* * *

SYSTEM_UNDER_TEST: KRAS (G12D) (Homo sapiens, UniProt P01116, G12D)
Construct: in-cell western with KRAS G12D antibody after 24 h
ASSAY_TEXT: KRAS (G12D) cellular degradation assay in AsPC-1 cells
Type: cell-based
EXPERIMENTAL_CONDITIONS: 24 hours, antibody fluorescence (Odyssey CLX), DC50 half-maximal degradation concentration
Some compounds, each annotated with its measured DC50.

QUERY_SMILES	DC50
CO[C@@H](C)COc1nc(N2C[C@@H]3C[C@H]2CN3)c2cc(C3CC3)c(-c3c(C)c(F)cc4[nH]ncc34)c(OCc3ccc(-c4cn([C@H](C(=O)N5C[C@H](O)C[C@H]5C(=O)N[C@H](c5ccc(S(F)(F)(F)(F)F)cc5)[C@H](C)O)C(C)C)nn4)cc3)c2n1	> 1000 nM

Below: the item to evaluate.
Entry `CO[C@@H](C)COc1nc(N2C[C@@H]3C[C@H]2CN3)c2cc(C3CC3)c(-c3c(C)c(F)cc4[nH]ncc34)c(OCc3ccc(-c4cn([C@H](C(=O)N5C[C@H](O)C[C@H]5C(=O)N[C@H](C#Cc5cccc6sc(C)nc56)CO)C(C)C)nn4)cc3)c2n1` : reported DC50 = ?
10 to 100 nM

The measured values listed here are drawn from patent US20260295053A1.
